Examples of binders with documented SPOT peptide array binding signal intensity follow.
- target_under_test: SpHof1-3
- test_details: SPOT peptide array binding signal intensity (averaged, normalized) (arbitrary units (background-subtracted, floor 0; scale differs between SH3 domains)); higher = stronger binding of the SH3 domain to the peptide

MARRRLPDRPPNGIG
3040
QNTPPLPPKPKSPHL
28.8
RTIRKLPLMSLSEYF
327
KRKRRLPVSEDTNTK
602
WRPRIVPILPYITRL
328

Asked: // returns reported SPOT peptide array binding signal intensity for input `NGRRRPKFRVQLSGN`
Given back: 788

Asked: // returns reported SPOT peptide array binding signal intensity for input `IRMPSNPALPKKLLN`
Given back: 22.8
